- Tested on: SNB-75 (CNS cancer)
- Assay comment: NCI-60 screen (SRB, 48 h)
- Condition description: Homo sapiens, SNB-75, 48 h, read-out: TGI
Assign IC (TGI) to each entry below.
// note: answer is a bare numeric in nM

Field request: IC (TGI) | item: CC1(C)CC[C@]2(CO)CC[C@]3(C)C(=CC[C@@H]4[C@@]5(C)CCCNC(C)(C)[C@@H]5CC[C@]43C)[C@@H]2C1
2170

Field request: IC (TGI) | item: C=C(C)C1CCC2(CO)CCC3(C)C(CCC4C5(C)CCCNC(C)(C)C5CCC43C)C12 (stereo not drawn)
2910

Field request: IC (TGI) | item: CC1(C)CC[C@]23CC[C@]4(C)[C@H](CC[C@@H]5[C@@]6(C)CCCNC(C)(C)[C@@H]6CC[C@]54C)[C@H]2[C@H]1OC3
2940

Field request: IC (TGI) | item: C=C(C)[C@@H]1CC[C@]2(C(=O)N[C@H](CO)Cc3ccccc3)CC[C@]3(C)[C@H](CC[C@@H]4[C@@]5(C)CCCNC(C)(C)[C@@H]5CC[C@]43C)[C@@H]12
2870

Field request: IC (TGI) | item: CC1(C)NCCC[C@]2(C)[C@H]3C=CC4=C5C[C@@](C)(CO)CC[C@]5(C)CC[C@@]4(C)[C@]3(C)CC[C@@H]12
14800

Field request: IC (TGI) | item: C[C@H]1[C@H](C)CC[C@]2(CO)CC[C@]3(C)C(=CC[C@@H]4[C@@]5(C)CCCNC(C)(C)[C@@H]5CC[C@]43C)[C@H]12
2900

Field request: IC (TGI) | item: Cc1ccc(S(=O)(=O)OC[C@]23CCC(C)(C)C[C@H]2C2=CC[C@@H]4[C@@]5(C)CCCNC(C)(C)[C@@H]5CC[C@@]4(C)[C@]2(C)CC3)cc1
2940

Field request: IC (TGI) | item: Cc1ccc(S(=O)(=O)OC[C@@]2(C)CC[C@]3(C)CC[C@]4(C)C(=C3C2)C=C[C@@H]2[C@@]3(C)CCCNC(C)(C)[C@@H]3CC[C@]24C)cc1
3100

Field request: IC (TGI) | item: C[C@H]1[C@H](C)CC[C@]2(C(=O)Nc3ccc4ncccc4c3)CC[C@]3(C)C(=CC[C@@H]4[C@@]5(C)CCCNC(C)(C)[C@@H]5CC[C@]43C)[C@H]12
3090

Field request: IC (TGI) | item: C=C(C)[C@@H]1CC[C@]2(C)[C@H](CC=C3[C@@H]4[C@@H](C)[C@H](C)CC[C@]4(CO)CC[C@]32C)[C@@]1(C)CCCN
3620

Field request: IC (TGI) | item: C=C(C)[C@@H]1CC[C@]2(C)[C@H](C=CC3=C4C[C@@](C)(CO)CC[C@]4(C)CC[C@]32C)[C@@]1(C)CCCN
2970

Field request: IC (TGI) | item: CC(C)=C1CCC=C2CC[C@]3(C)[C@H](CC[C@@H]4[C@@]5(C)CCCNC(C)(C)[C@@H]5CC[C@]43C)[C@H]21
3840
